- target system: human ether-à-go-go-related gene (hERG) potassium channel (human, UniProt Q12809);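 further: peak tail current of the secondary pulse compared with the same well before compound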
- Sequence (Q12809 whole entry, looked up): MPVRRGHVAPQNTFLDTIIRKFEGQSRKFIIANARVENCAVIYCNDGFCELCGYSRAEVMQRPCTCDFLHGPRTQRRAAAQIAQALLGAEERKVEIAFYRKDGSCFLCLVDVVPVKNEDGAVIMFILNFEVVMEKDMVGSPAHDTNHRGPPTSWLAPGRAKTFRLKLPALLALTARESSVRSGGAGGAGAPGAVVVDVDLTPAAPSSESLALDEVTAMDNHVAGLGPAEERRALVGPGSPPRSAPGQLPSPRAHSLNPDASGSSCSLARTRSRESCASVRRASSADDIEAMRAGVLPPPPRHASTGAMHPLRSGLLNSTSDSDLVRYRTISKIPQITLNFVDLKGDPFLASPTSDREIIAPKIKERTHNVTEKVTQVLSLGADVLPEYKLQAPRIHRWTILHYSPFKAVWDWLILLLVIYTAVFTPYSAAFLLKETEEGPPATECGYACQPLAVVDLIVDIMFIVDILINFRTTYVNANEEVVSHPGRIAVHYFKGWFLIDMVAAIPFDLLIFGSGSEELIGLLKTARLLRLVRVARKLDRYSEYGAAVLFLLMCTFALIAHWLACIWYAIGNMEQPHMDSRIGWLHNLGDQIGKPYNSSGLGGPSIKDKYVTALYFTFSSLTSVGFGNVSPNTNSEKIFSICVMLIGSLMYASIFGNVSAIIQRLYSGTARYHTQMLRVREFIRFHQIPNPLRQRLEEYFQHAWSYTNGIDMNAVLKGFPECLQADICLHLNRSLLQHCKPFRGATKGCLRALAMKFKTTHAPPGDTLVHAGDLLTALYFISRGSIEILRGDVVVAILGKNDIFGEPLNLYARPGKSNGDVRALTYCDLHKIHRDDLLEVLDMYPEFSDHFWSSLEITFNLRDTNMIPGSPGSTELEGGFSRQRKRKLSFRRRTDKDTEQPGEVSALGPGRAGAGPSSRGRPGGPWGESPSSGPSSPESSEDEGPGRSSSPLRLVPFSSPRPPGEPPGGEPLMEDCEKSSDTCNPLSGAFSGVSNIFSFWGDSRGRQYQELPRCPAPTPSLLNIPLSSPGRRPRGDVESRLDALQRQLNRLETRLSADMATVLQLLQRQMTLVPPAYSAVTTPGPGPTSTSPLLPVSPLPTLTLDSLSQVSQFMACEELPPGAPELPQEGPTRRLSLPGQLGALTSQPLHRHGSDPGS
- protocol summary: primary screen, population patch clamp on CHO cells stably expressing hERG; higher = less effect of the substance
Hit rate of the full screen: of about 310,000 compounds, about 14,000 (4.5%) showed an effect of 50% or more. Effects have a minus sign here. The entries come from a sample that favours strong results as a whole.
Measured hERG current change (%, negative = inhibition) at 10uM of individual entries
Number only, in %; omit the unit.

# molecule, target system, output unit, test value
records = [
    ("COC(=O)C1=C[C@@H](C(=O)OC)[C@@H]2C3=C(C(=O)[C@]2(C)NC(=O)c2ccccc2)[C@H](C)n2c(=O)n(-c4ccccc4)c(=O)n2[C@@H]3C1", "human ether-à-go-go-related gene (hERG) potassium channel (human, UniProt Q12809)", "%", 7.6),
]

# molecule CCOc1ccc(S(=O)(=O)NCCC(=O)NCc2cccnc2)cc1 ; its hERG current change (%, negative = inhibition) at 10uM = 4.31

// hERG current change (%, negative = inhibition) at 10uM lookup, molecule = CCCC(c1nnnn1CCc1ccccc1)N1CCN(C2CCCC2)CC1 (centres unmarked) , result: -48.9

Looking up O=C(Nc1ccccn1)C1(c2cccs2)CCOCC1 , I found its hERG current change (%, negative = inhibition) at 10uM recorded as 8.48

// hERG current change (%, negative = inhibition) at 10uM lookup, molecule = CN1C2C=C(N(CCc3ccccc3)C(=O)c3ccc(Cl)cc3)CC1CC2.Cl (centres unmarked) , result: -74.8

The recorded hERG current change (%, negative = inhibition) at 10uM for entry O=C(NC(=S)Nc1cc(Cl)ccc1N1CCOCC1)c1ccc(-c2cccc(Cl)c2)o1 equals 8.91

Per the records, this molecule ( CCc1ccccc1N(CC(=O)NCc1ccco1)C(=O)CCC(=O)Nc1ccccn1 ) has hERG current change (%, negative = inhibition) at 10uM equal to -7.41
